Measured pIC50 accompanies every entry in the list below.
Experimental System: Tyrosine-protein kinase BTK (Mus musculus)
Sequence (P35991 whole entry): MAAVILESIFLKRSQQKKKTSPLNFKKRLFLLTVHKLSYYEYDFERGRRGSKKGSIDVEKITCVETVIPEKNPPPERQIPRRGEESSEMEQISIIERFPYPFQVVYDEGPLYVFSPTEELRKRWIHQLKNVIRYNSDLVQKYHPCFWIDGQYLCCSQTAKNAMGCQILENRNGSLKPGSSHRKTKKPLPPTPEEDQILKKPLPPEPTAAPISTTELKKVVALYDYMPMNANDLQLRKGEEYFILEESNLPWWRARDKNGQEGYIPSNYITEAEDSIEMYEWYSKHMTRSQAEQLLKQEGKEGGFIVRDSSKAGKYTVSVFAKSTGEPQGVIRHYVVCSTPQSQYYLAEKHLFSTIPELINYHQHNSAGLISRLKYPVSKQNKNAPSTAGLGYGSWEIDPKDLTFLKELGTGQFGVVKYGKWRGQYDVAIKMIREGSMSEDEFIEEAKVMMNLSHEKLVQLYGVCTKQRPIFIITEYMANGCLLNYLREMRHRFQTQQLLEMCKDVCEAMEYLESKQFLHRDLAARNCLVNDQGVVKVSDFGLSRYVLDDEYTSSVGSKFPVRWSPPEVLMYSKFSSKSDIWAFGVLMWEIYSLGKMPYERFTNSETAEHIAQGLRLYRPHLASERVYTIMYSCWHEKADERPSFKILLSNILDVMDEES
Protocol Details: Inhibition of C57BL/6J mouse BTK assessed as decrease in anti-mouse IgM antibody stimulated BCR mediated CD69 upregulation preincubated for 30 mins followed by antibody challenge after 18 to 24 hrs by flow cytometry
pIC50 is defined as minus the log10 of a concentration measured in mol/L.

Solved entries:
Molecular String	Experimental System	Test Result
CN(C)C(=O)N1CC=C(c2cc3c(-c4cccc(N5CCOc6cc(C7CC7)cc(F)c6C5=O)c4CO)ccnc3[nH]2)CC1	Tyrosine-protein kinase BTK (Mus musculus)	8.24
CN1CCN(Cc2ccc(-c3cc4c(-c5cccc(N6CCOc7cc(C8CC8)ccc7C6=O)c5CO)ncnc4[nH]3)cc2)CC1	Tyrosine-protein kinase BTK (Mus musculus)	7.32
CC1(O)CCN(Cc2ccc(-c3cc4c(-c5cccc(N6CCOc7cc(C8CC8)ccc7C6=O)c5CO)ncnc4[nH]3)cc2)CC1	Tyrosine-protein kinase BTK (Mus musculus)	7.09

### Prompt Tell me reported pIC50 for `CN1CCC(n2cc(-c3cc4c(-c5cccc(N6CCOc7cc(C8CC8)ccc7C6=O)c5CO)ncnc4[nH]3)cn2)CC1` , tested with Tyrosine-protein kinase BTK (Mus musculus).
### Response 7.49

### Prompt Next entry: `CC(C)(O)CN1CC=C(c2cc3c(-c4cccc(N5CCOc6cc(C7CC7)cc(F)c6C5=O)c4CO)ccnc3[nH]2)CC1`
### Response 7.12

### Prompt Another molecule to look at: `CN1CCN(c2ccc(-c3cc4c(-c5cccc(N6CCOc7cc(C8CC8)ccc7C6=O)c5CO)ncnc4[nH]3)cc2)CC1`
### Response 7.44

### Prompt Now give it for `N#CCC(=O)N1CC=C(c2cc3c(-c4cccc(N5CCOc6cc(C7CC7)cc(F)c6C5=O)c4CO)ccnc3[nH]2)CC1` too.
### Response 7.29
